Recorded IC50 for the following molecules
biological target: RIPK2 and XIAP protein-protein interaction (Homo sapiens, UniProt O43353); construct: the N-terminus of full-length RIPK2 was appended with the HaloTag fusion protein; test: Inhibition of the interaction of RIPK2 with XIAP (NanoBRET in HEK293T cells); conditions: RIPK2 HaloTag / XIAP NanoLuc, read-out: NanoBRET Scaffolding IC50
Sequence (O43353 whole entry, the tested form may be a part): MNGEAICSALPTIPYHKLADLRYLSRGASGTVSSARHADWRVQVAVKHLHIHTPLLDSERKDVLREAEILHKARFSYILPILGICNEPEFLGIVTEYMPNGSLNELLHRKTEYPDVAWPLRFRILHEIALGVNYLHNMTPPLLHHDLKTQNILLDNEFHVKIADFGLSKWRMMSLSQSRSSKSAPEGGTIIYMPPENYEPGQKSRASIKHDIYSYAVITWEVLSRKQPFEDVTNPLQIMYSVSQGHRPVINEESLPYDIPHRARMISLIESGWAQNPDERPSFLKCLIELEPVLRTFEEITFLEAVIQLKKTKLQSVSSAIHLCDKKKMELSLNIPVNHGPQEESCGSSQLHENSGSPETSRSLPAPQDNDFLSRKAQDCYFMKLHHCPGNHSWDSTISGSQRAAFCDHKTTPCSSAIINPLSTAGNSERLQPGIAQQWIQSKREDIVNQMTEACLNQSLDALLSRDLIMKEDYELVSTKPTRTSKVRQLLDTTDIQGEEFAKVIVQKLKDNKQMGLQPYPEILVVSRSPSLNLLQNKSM
Show the value, then the unit it is measured in.

See these solved cases before continuing.
{"molecule": "CC(C)(C)n1cc(NC(=O)Cc2cc(Cl)c(Oc3ccnc4ccc(S(=O)(=O)C5CC5)cc34)cc2F)cn1", "result": "0.0075 µM"}
{"molecule": "Cc1cc(CC(=O)Nc2cnn(C(C)(C)C)c2)cc(C)c1Oc1ccnc2ccc(C(N)=O)cc12", "result": "0.128 µM"}

So what's the measured IC50 for this one? CC(C)(C)n1cc(NC(=O)Cc2ccc(Oc3ccnc4ccc(S(C)(=N)=O)cc34)c(Cl)c2)cn1 (single isomer, unassigned)
0.093 µM

* * *

Molecular target: RIPK2 and XIAP protein-protein interaction (Homo sapiens, UniProt O43353)
Construct: the N-terminus of full-length RIPK2 was appended with the HaloTag fusion protein
Assay: Inhibition of the interaction of RIPK2 with XIAP (NanoBRET in HEK293T cells)
Conditions: RIPK2 HaloTag / XIAP NanoLuc, read-out: NanoBRET Scaffolding IC50
Text: An assay measuring the RIPK2 and XIAP protein-protein interaction was generated using the NanoBRET protein:protein interaction system (Promega) which measures the energy transfer from a bioluminescent protein donor (NanoLuc fusion protein) to a fluorescent protein acceptor (Halotag fusion protein). In this assay, the C-terminus of full-length XIAP was appended with the NanoLuc fusion protein and the N-terminus of full-length RIPK2 was appended with the HaloTag fusion protein. […]
quantity: pIC50
Schema: pIC50 number; meaning minus log10 of the concentration expressed in molar units.

{"structureNotation": "CNC(=O)c1ccc2nccc(Oc3cc(F)c(CC(=O)Nc4cnn(C(C)(C)C)c4)cc3C)c2c1", "numericValue": 8.10}
{"structureNotation": "Cc1cc(CC(=O)Nc2cnn(C(C)(C)C)c2)ccc1Oc1ccnc2ccc(OC3CCN(C)CC3)cc12", "numericValue": 8.22}

Let us examine a further case.
So what's the measured pIC50 for this one? `CNC(=O)c1ccc2nccc(Oc3c(C)cc(CC(=O)Nc4cnn(C(C)(C)C)c4)cc3F)c2c1`
8.18

* * *

Recorded IC50 for the following compounds
system: human NOD2 signaling; test: Inhibition of human NOD2 signaling in HEK-Blue-hNOD2 cells (L18-MDP stimulated, SEAP reporter); format: cell-based; conditions: Homo sapiens, HEK-Blue hNOD2, HEK-Blue-hNOD2 cells, NOD2 ligand stimulation, SEAP reporter; read-out: hNOD2 IC50
Show the value, then the unit it is measured in.

See these solved cases before continuing.
{"compound": "CNC(=O)c1cc2c(Oc3ccc(CC(=O)Nc4cnn(C(C)(C)C)c4)cc3C(F)F)ccnc2cc1OC", "result": "0.8 nM"}
{"compound": "[2H]C([2H])([2H])NC(=O)c1cc2c(Oc3ccc(CC(=O)Nc4cnn(C(C)(C)C)c4)cc3C(F)F)ccnc2cc1OC", "result": "1.2 nM"}

So what's the measured IC50 for this one? Cc1cc(CC(=O)Nc2cnn(C(C)(C)C)c2)ccc1Oc1ccnc2ccc(S(=N)(=O)C3CC3)cc12 (single isomer, unassigned)
1.2 nM

* * *

test system: human NOD2 signaling; experiment: Inhibition of human NOD2 signaling in HEK-Blue-hNOD2 cells (L18-MDP stimulated, SEAP reporter); assay type: cell-based; details: Homo sapiens, HEK-Blue hNOD2, HEK-Blue-hNOD2 cells, NOD2 ligand stimulation, SEAP reporter; read-out: hNOD2 IC50
quantity: IC50 (nM)
The reply should contain only the number, in nM.

So what's the measured IC50 for this one? `Cc1cc(CC(=O)Nc2cnn(C(C)(C)C)c2)c(F)cc1Oc1ccnc2ccc(-c3c[nH]nc3O)cc12`
26

Can you handle Cc1c(Oc2ccnc3ccc(S(=N)(=O)C4CCC4)cc23)ccc(CC(=O)Nc2cnn(C(C)(C)C)c2)c1F (single isomer, unassigned) next?
0.3

Can you handle `[2H]C([2H])([2H])NC(=O)c1cc2c(Oc3cc(F)c(CC(=O)Nc4cnn(C(C)(C)C)c4)cc3C)ccnc2cc1F` next?
0.4

Can you handle `Cc1cc(CC(=O)Nc2cnn(C(C)(C)C)c2)cc(F)c1Oc1ccnc2ccc(S(C)(=O)=O)cc12` next?
3.4

Can you handle `CC(C)(C)n1cc(NC(=O)Cc2cc(Cl)c(Oc3ccnc4ccc(S(=O)(=O)C5CC5)cc34)cc2F)cn1` next?
0.5

Can you handle `CC1(NC(=O)c2ccc3nccc(Oc4cc(F)c(CC(=O)Nc5cnn(C(C)(C)C)c5)cc4Cl)c3c2)CC1` next?
2.7

Can you handle `CCc1nc(-c2ccc3nccc(Oc4cc(F)c(CC(=O)Nc5cnn(C(C)(C)C)c5)cc4C)c3c2)n[nH]1` next?
0.6

Can you handle `CNC(=O)c1ccc2nccc(Oc3ccc(CC(=O)Nc4cnn(C(C)(C)C)c4)cc3C)c2c1` next?
0.2

* * *

target: RIPK2 and XIAP protein-protein interaction (Homo sapiens, UniProt O43353); construct: the N-terminus of full-length RIPK2 was appended with the HaloTag fusion protein; test: Inhibition of the interaction of RIPK2 with XIAP (NanoBRET in HEK293T cells); conditions: RIPK2 HaloTag / XIAP NanoLuc, read-out: NanoBRET Scaffolding IC50
quantity: pIC50
Schema: pIC50 number; meaning minus log10 of the concentration expressed in molar units.

So what's the measured pIC50 for this one? Cc1c(Oc2ccnc3ccc(S(=N)(=O)C4CC4)cc23)ccc(CC(=O)Nc2cnn(C(C)(C)C)c2)c1F (single isomer, unassigned) [Compound 441]
8.10

* * *

Tested on: human NOD2 signaling
Assay: Inhibition of human NOD2 signaling in HEK-Blue-hNOD2 cells (L18-MDP stimulated, SEAP reporter)
Format: cell-based
Settings: Homo sapiens, HEK-Blue hNOD2, HEK-Blue-hNOD2 cells, NOD2 ligand stimulation, SEAP reporter; read-out: hNOD2 IC50
Method: Materials: Human NOD32-expressing 1TEK293 cells, HEK-Blue™-hNOD2 cells, were developed by Invivogen (catalogue number: hkb-hnod2) using co-transfection of the human NOD2 gene and an optimized secreted embryonic alkaline phosphatase (SEAP) reporter gene into HTEK293 cells. […] Levels of SEAP were determined with HEK-Blue™ Detection (referred to as QUANTI-Blue solution), a cell culture medium that allows for real-time detection of SEAP. […]
Recorded IC50 for the following molecules
The reply should contain only the number, in nM.

See these solved cases before continuing.
{"molecule": "Cc1cc(CC(=O)Nc2cnn(C(C)(C)C)c2)ccc1Oc1ccnc2ccc(S(=N)(=O)C(C)(C)C)cc12 (single isomer, unassigned) [Compound 549]", "quantity": "IC50", "unitOfMeasurement": "nM", "numericValue": 18.2}
{"molecule": "[2H]C([2H])([2H])NC(=O)c1cc2c(Oc3ccc(CC(=O)Nc4cnn(C(C)(C)C)c4)nc3C)ccnc2cc1F [Compound 614]", "quantity": "IC50", "unitOfMeasurement": "nM", "numericValue": 3.7}
{"molecule": "CNC(=O)c1cc2c(Oc3ccc(CC(=O)Nc4cnn(C(C)(C)C)c4)c(C#N)c3C)ccnc2cc1F [Compound 611]", "quantity": "IC50", "unitOfMeasurement": "nM", "numericValue": 0.9}

Let us examine a further case.
So what's the measured IC50 for this one? Cc1cc(CC(=O)Nc2cnn(C(C)(C)C)c2)c(F)cc1Oc1ccnc2ccc(-c3ncncc3C)cc12 [Compound 477]
5.4

* * *

system: TNF-alpha secretion in human whole blood; assay: Inhibition of TNF-alpha secretion in human whole blood (IFN-gamma primed, L18-MDP stimulated); format: cell-based; details: Homo sapiens, 16 h, L18-MDP 100 ng/mL, read-out: Human Whole Blood TNFα IC50
quantity: pIC50
Schema: pIC50 number; meaning minus log10 of the concentration expressed in molar units.

{"compound": "Cc1cc(CC(=O)Nc2cnn(C(C)(C)C)c2)cc(F)c1Oc1ccnc2ccc(S(C)(=O)=O)cc12", "quantity": "pIC50", "numericValue": 7.31}
{"compound": "CCS(=O)(=O)c1ccc2nccc(Oc3cc(F)c(CC(=O)Nc4cnn(C(C)(C)C)c4)cc3C)c2c1", "quantity": "pIC50", "numericValue": 8.10}
{"compound": "CCS(=N)(=O)c1ccc2nccc(Oc3ccc(CC(=O)Nc4cnn(C(C)(C)C)c4)cc3C)c2c1 (single isomer, unassigned)", "quantity": "pIC50", "numericValue": 8.23}
{"compound": "CCS(=O)(=O)c1ccc2nccc(Oc3ccc(CC(=O)Nc4cnn(C(C)(C)C)c4)cc3C)c2c1", "quantity": "pIC50", "numericValue": 8.10}

So what's the measured pIC50 for this one? Cc1c(Oc2ccnc3ccc(S(=N)(=O)C4CC4)cc23)ccc(CC(=O)Nc2cnn(C(C)(C)C)c2)c1F (single isomer, unassigned)
8.22

Can you handle CC(C)(C)n1cc(NC(=O)Cc2ccc(Oc3ccnc4ccc(S(C)(=N)=O)cc34)c(Cl)c2)cn1 (single isomer, unassigned) next?
7.62

Can you handle `Cc1cc(CC(=O)Nc2cnn(C(C)(C)C)c2)c(F)cc1Oc1ccnc2cc(F)c(C(N)=O)cc12` next?
8.59

Can you handle Cc1cc(CC(=O)Nc2cnn(C(C)(C)C)c2)ccc1Oc1ccnc2ccc(S(=N)(=O)C3CC3)cc12 (single isomer, unassigned) next?
8.52

Can you handle Cc1cc(C(C)C(=O)Nc2cnn(C(C)(C)C)c2)ccc1Oc1ccnc2ccc(S(C)(=O)=O)cc12 (single isomer, unassigned) next?
7.26

Can you handle `Cc1cc(CC(=O)Nc2cnn(C(C)(C)C)c2)cc(F)c1Oc1ccnc2ccc(C(N)=O)cc12` next?
8.08

Can you handle `CN1CCC(Oc2ccc3nccc(Oc4cnc(CC(=O)Nc5cnn(C(C)(C)C)c5)c(F)c4)c3c2)CC1` next?
8.15

Can you handle `Cc1c(Oc2ccnc3ccc(S(C)(=O)=O)cc23)ccc(CC(=O)Nc2cnn(C(C)(C)C)c2)c1F` next?
8.22

Can you handle `CN1CCC(Oc2ccc3ncnc(Oc4cnc(CC(=O)Nc5cnn(C(C)(C)C)c5)c(F)c4)c3c2)CC1` next?
7.92

Can you handle `COc1ccc2ncnc(Oc3ccc(CC(=O)Nc4cnn(C(C)(C)C)c4)c(F)c3)c2c1` next?
6.99

Can you handle CC(C)(C)n1cc(NC(=O)Cc2ccc(Oc3ccnc4ccc(S(C)(=N)=O)cc34)cc2F)cn1 (centres unmarked) next?
8.30

Can you handle `Cc1cc(CC(=O)Nc2cnn(C(C)(C)C)c2)ccc1Oc1ccnc2ccc(S(C)(=O)=O)cc12` next?
8.05

Can you handle `CC(C)(C)n1cc(NC(=O)Cc2ccc(Oc3ccnc4ccc(S(C)(=O)=O)cc34)cc2F)cn1` next?
8.30
